# study.target: LecA (Pseudomonas aeruginosa)
# Construct: made in house
# Sequence (Q05097 whole entry): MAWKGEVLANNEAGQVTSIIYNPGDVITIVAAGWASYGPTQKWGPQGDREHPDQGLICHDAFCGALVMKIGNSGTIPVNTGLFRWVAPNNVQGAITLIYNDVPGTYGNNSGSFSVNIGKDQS
# experiment.notes: competitive binding assay based on fluorescence polarisation (FP)
# measurement.context: FP IC50, Table 1; 20 μM LecA, 10 nM reporter ligand 8, TBS/Ca2+ buffer with 25% DMSO (**)
pIC50: −log10 of the molar value.
Outcome label depends on pIC50 relative to 5: at/above gives MET, below gives NOT MET.

Recorded results for 10 compounds are shown here.
O=C(NN=Cc1ccc(OCCCOc2ccc(C=NNC(=O)c3ccc(OC4OC(CO)C(O)C(O)C4O)cc3)cc2)cc1)c1ccc(OC2OC(CO)C(O)C(O)C2O)cc1 (centres unmarked) = MET
O=C(NN=Cc1ccc(OCCCCOc2ccc(C=NNC(=O)c3ccc(OC4OC(CO)C(O)C(O)C4O)cc3)cc2)cc1)c1ccc(OC2OC(CO)C(O)C(O)C2O)cc1 (centres unmarked) = MET
O=C(NN=Cc1ccc(OCCOc2ccc(C=NNC(=O)c3ccc(OC4OC(CO)C(O)C(O)C4O)cc3)cc2)cc1)c1ccc(OC2OC(CO)C(O)C(O)C2O)cc1 (centres unmarked) = MET
O=C(NN=Cc1ccc(OCCCCOc2ccc(C=NNC(=O)c3cccc(OC4OC(CO)C(O)C(O)C4O)c3)cc2)cc1)c1cccc(OC2OC(CO)C(O)C(O)C2O)c1 (centres unmarked) = MET
O=C(NN=Cc1ccc(Oc2ccc(C=NNC(=O)c3cccc(OC4OC(CO)C(O)C(O)C4O)c3)cc2)cc1)c1cccc(OC2OC(CO)C(O)C(O)C2O)c1 (centres unmarked) = MET
O=C(NN=Cc1ccc(OCOc2ccc(C=NNC(=O)c3ccc(OC4OC(CO)C(O)C(O)C4O)cc3)cc2)cc1)c1ccc(OC2OC(CO)C(O)C(O)C2O)cc1 (centres unmarked) = MET
O=C(NN=Cc1ccc(Oc2ccc(C=NNC(=O)c3ccc(OC4OC(CO)C(O)C(O)C4O)cc3)cc2)cc1)c1ccc(OC2OC(CO)C(O)C(O)C2O)cc1 (centres unmarked) = MET
COc1ccc(C=NNC(=O)c2cccc(OC3OC(CO)C(O)C(O)C3O)c2)cc1 (centres unmarked) = NOT MET
NNC(=O)c1ccc(O[C@@H]2OC(CO)[C@H](O)C(O)C2O)cc1 (some centres unmarked) [reference compound] = NOT MET
O=C(NN=Cc1ccc(OCCOc2ccc(C=NNC(=O)c3cccc(OC4OC(CO)C(O)C(O)C4O)c3)cc2)cc1)c1cccc(OC2OC(CO)C(O)C(O)C2O)c1 (centres unmarked) = MET

Pending compound:
**Query** Could you tell me if the measured pIC50 of O=C(NN=Cc1ccc(OCOc2ccc(C=NNC(=O)c3cccc(OC4OC(CO)C(O)C(O)C4O)c3)cc2)cc1)c1cccc(OC2OC(CO)C(O)C(O)C2O)c1 (centres unmarked) reaches 5 or more?
**Result** MET

* * *

# study.target: LecA (Pseudomonas aeruginosa)
# Construct: made in house
# experiment.notes: surface plasmon resonance (SPR) direct binding to immobilised LecA
Hi there, I'd appreciate the recorded koff for every entry that follows.
Give bare numbers, in s⁻¹.

Provide koff values for the following items, in order.
1. O=C(/C=C/c1ccc(O[C@@H]2O[C@H](CO)[C@H](O)[C@H](O)[C@H]2O)cc1)Nc1ccc(OCCOc2ccc(NC(=O)/C=C/c3ccc(O[C@@H]4O[C@H](CO)[C@H](O)[C@H](O)[C@H]4O)cc3)cc2)cc1
2. O=C(CCc1ccc(O[C@@H]2O[C@H](CO)[C@H](O)[C@H](O)[C@H]2O)cc1)Nc1ccc(OCCOc2ccc(NC(=O)CCc3ccc(O[C@@H]4O[C@H](CO)[C@H](O)[C@H](O)[C@H]4O)cc3)cc2)cc1
3. O=C(CCc1ccc(O[C@@H]2O[C@H](CO)[C@H](O)[C@H](O)[C@H]2O)cc1)Nc1ccc(OCCCCOc2ccc(NC(=O)CCc3ccc(O[C@@H]4O[C@H](CO)[C@H](O)[C@H](O)[C@H]4O)cc3)cc2)cc1
4. O=C(/C=C/c1ccc(O[C@@H]2O[C@H](CO)[C@H](O)[C@H](O)[C@H]2O)cc1)Nc1ccc(OCOc2ccc(NC(=O)/C=C/c3ccc(O[C@@H]4O[C@H](CO)[C@H](O)[C@H](O)[C@H]4O)cc3)cc2)cc1

**Result**
0.00249
0.00284
0.00366
0.00379

Reference for the values: patent US12545699B2
